Entries and their measured Plasma Stability: % remaining after 5 hours follow.
test: Plasma stability, rat; assay type: in vitro ADME
The response must be a number in % with no trailing unit.

Please review the entries below; each comes with its answer.
                                   compound  quantitative_result
0  O=C(NC(c1ccc(Cl)cc1)c1cccc(F)c1)C1CCN(CCOc2ccccc2)CC1 (stereo not drawn) [Compound 41]                   96
1  O=C(NC(c1ccc(F)cc1)c1ccccn1)C1CCN(CCOc2ccccc2Cl)CC1 (stereo not drawn) [Compound 53]                   78
2  O=C(NC(c1ccc(F)cc1)c1ccccn1)C1CCN(CCOc2ccccc2F)CC1 (stereo not drawn) [Compound 54]                   78
3  O=C(NC(c1ccc(F)cc1)c1ccccn1)C1CCN(CCOc2ccccc2)CC1 (stereo not drawn) [Compound 25]                 94.5
4  COc1cccc(C(NC(=O)C2CCN(CCOc3ccccc3)CC2)c2ccccn2)c1 (stereo not drawn) [Compound 35]                 99.6
5  O=C(NC(c1ccc(Cl)cc1)c1ccccn1)C1CCN(CCOc2ccc3ccc(=O)[nH]c3c2)CC1 (stereo not drawn) [Compound 15]                   91
6  COc1cccc(C(NC(=O)C2CCN(CCOc3ccccc3)CC2)c2ccccc2)c1 (stereo not drawn) [Compound 146]                   88
7  O=C(NC(c1ccc(Cl)cc1)c1ccccn1)C1CCN(CCOc2ccc(F)cc2F)CC1 (stereo not drawn) [Compound 115]                 98.0

Q: For O=C(NC(c1ccccc1)c1ccc(F)cc1)C1CCN(CCOc2ccccc2)CC1 (stereo not drawn) [Compound 45] , write its Plasma Stability: % remaining after 5 hours.
Result: 85

###

Measured pIC50 accompanies every entry in the list below.
target: human D2R/β-arrestin (Homo sapiens (Human), UniProt P14416); assay: cell-based; conditions: β-arrestin Antagonist, CHO-K1 cell line expressing human D2R/β-arrestin; quinpirole used as agonist
Sequence (P14416 whole entry): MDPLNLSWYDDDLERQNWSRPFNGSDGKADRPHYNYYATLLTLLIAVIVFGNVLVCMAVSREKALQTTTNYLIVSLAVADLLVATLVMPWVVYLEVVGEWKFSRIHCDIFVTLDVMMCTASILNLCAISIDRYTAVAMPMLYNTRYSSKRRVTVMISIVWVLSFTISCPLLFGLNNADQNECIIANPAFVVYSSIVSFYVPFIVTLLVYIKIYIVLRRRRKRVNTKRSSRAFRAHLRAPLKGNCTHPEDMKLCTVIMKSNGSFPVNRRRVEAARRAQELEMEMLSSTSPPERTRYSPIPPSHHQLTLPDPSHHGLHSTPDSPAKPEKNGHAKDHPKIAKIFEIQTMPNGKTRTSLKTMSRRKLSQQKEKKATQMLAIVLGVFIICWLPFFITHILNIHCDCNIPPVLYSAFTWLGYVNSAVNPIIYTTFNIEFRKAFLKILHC
pIC50: −log10 of the molar value.

Some solved entries appear below for comparison.
In [3]: df
Out[3]:
                                   compound  property        result
0  CC(C)N(CC1CCN(CCOc2ccccc2F)CC1)C(c1ccc(Cl)cc1)c1ccccn1 (single isomer, unassigned) [Compound 133a]     pIC50        > 7.00
1  COc1ccccc1C(NC(=O)C1CCN(CCOc2ccccc2)CC1)c1ccccn1 (stereo not drawn) [Compound 36]     pIC50  4.52 to 5.00
2  O=C(NC(c1ccc2c(c1)OC(F)(F)O2)c1ccccn1)C1CCN(CCOc2ccc(F)cc2F)CC1 (single isomer, unassigned) [Compound 130a]     pIC50  5.00 to 6.00
3  Clc1ccc(C(c2ccccn2)N2CCC3(CCN(CCOc4ccccc4)CC3)C2)cc1 (single isomer, unassigned) [Compound 105b]     pIC50  5.00 to 6.00
4  Clc1ccc(C(c2ccccn2)N2CC3(CCN(CCOc4ccccc4)CC3)C2)cc1 (stereo not drawn) [Compound 104]     pIC50  4.52 to 5.00

Now for the compound whose pIC50 we want.
Q: Identify pIC50 associated with the compound COCCN1CCC(C(=O)NC(c2ccc(Cl)cc2)c2ccccn2)CC1 (stereo not drawn) [Compound 65]
Result: 4.52 to 5.00

###

Reported pIC50 by item:
target: human D2R/β-arrestin (Homo sapiens (Human), UniProt P14416); assay: cell-based; conditions: cAMP Antagonist, CHO-K1 cell line expressing human D2R/β-arrestin; quinpirole used as agonist
pIC50: −log10 of the molar value.

Use these answered entries as a reference point.
In [3]: df
Out[3]:
                                   compound                       experimental_system  property        result
0  COc1cccc(C(c2ccccn2)N(CC2CCN(CCOc3ccccc3F)CC2)C(C)C)c1 (stereo not drawn)  human D2R/β-arrestin (Homo sapiens (Human), UniProt P14416)     pIC50  6.00 to 7.00
1  Clc1ccc(C(c2ccccn2)N2CCC3(CCN(CCOc4ccccc4)CC3)C2)cc1 (single isomer, unassigned) [Compound 105a]  human D2R/β-arrestin (Homo sapiens (Human), UniProt P14416)     pIC50        < 4.52
2  O=C(NC(c1ccc(Cl)cc1)c1ccc(F)cn1)C1CCN(CCOc2ccccc2)CC1 (stereo not drawn)  human D2R/β-arrestin (Homo sapiens (Human), UniProt P14416)     pIC50        < 4.52
3  O=C(NC(c1ccc(Cl)cc1)c1ccccn1)C1CCN(CCOc2ccc3ncsc3c2)CC1 (stereo not drawn)  human D2R/β-arrestin (Homo sapiens (Human), UniProt P14416)     pIC50        < 4.52
4  O=C(NC(c1ccc(Cl)cc1)c1ccncc1F)C1CCN(CCOc2ccccc2F)CC1 (stereo not drawn) [Compound 91]  human D2R/β-arrestin (Homo sapiens (Human), UniProt P14416)     pIC50  6.00 to 7.00

Q: Identify measured pIC50 corresponding to COCCN1CCC(C(=O)NC(c2ccc(Cl)cc2)c2ccccn2)CC1 (stereo not drawn)
Result: 5.00 to 6.00

Q: Determine from records and report pIC50 for FC(F)(F)CN(CC1CCN(CCOc2ccccc2)CC1)C(c1ccc(Cl)cc1)c1ccccn1 (stereo not drawn) [Compound 125]
Result: 6.00 to 7.00

Q: Please report pIC50 for the following compound: COc1cccc(C(NC(=O)C2CCN(CCOc3ccccc3Cl)CC2)c2ccccc2F)c1 (stereo not drawn)
Result: > 7.00

###

fraction unbound values, listed per item
test system: plasma protein; assay: Plasma protein binding, rat; type: in vitro ADME; details: plasma, read-out: Plasma Protein Binding % bound
Give a plain numeric answer without units written out.

# example entries with known answers
In [3]: df
Out[3]:
                                   molecule  quantitative_result
0  O=C(NC(c1ccc(C(F)(F)F)cc1)c1ccccn1)C1CCN(CCOc2ccccc2)CC1 (centres unmarked)                0.014
1  O=C(NC(c1ccc(F)cc1)c1ccccn1)C1CCN(CCOc2ccccc2Cl)CC1 (centres unmarked)                0.086
2  O=C(NC(c1cccc(F)c1)c1ccccn1)C1CCN(CCOc2ccccc2)CC1 (centres unmarked)                0.046
3  O=C(NC(c1ccc(F)cc1)c1ccccn1)C1CCN(CCOc2ccccc2F)CC1 (centres unmarked)                0.027
4  O=C(NC(c1ccc(Cl)cc1)c1ccccn1)C1CCN(CCOc2ccc3cccnc3c2)CC1 (centres unmarked)                0.021
5  O=C(NC(c1ccc(Cl)cc1)c1ccccn1)C1CCN(CCOc2ccccc2F)CC1 (centres unmarked)                0.315
6  O=C(NC(c1ccc(Cl)cc1)c1ccccn1)C1CCN(CCn2ccc(=O)cc2)CC1 (centres unmarked)                0.211
7  O=C(NC(c1ccccc1)c1ccc(F)cc1)C1CCN(CCOc2ccccc2)CC1 (centres unmarked)                0.012

Q: Specify fraction unbound for O=C(NC(c1ccc(F)cc1)c1ccccn1)C1CCN(CCOc2ccccc2C(F)(F)F)CC1 (centres unmarked) and stop.
Result: 0.021

Q: Identify fraction unbound associated with the molecule O=C(NC(c1ccc(Cl)cc1)c1ccccn1)C1CCN(CCOc2cc(F)ccc2F)CC1 (centres unmarked)
Result: 0.006

Q: Consider the molecule COc1cccc(C(NC(=O)C2CCN(CCOc3ccccc3)CC2)c2ccccn2)c1 (centres unmarked) . State its measured fraction unbound.
Result: 0.042

###

Catalogue of molecules with associated pEC50
biological target: human D2R/β-arrestin (Homo sapiens (Human), UniProt P14416); test: Gi/cAMP agonist assay (Lance Ultra cAMP, Forskolin); type: cell-based; settings: CHO-K1 cell line expressing human D2R/β-arrestin
pEC50: −log10 of the molar value.

>>> print(df.to_string())
                                   molecule  property  result
0  COc1ccccc1C(NC(=O)C1CCN(CCOc2ccccc2)CC1)c1ccccn1 (centres unmarked)     pEC50  < 4.52

Q: Fill in reported pEC50 for this entry: CN(CC1(C)CCN(CCOc2ccccc2)CC1)C(c1ccc(Cl)cc1)c1ccccn1 (centres unmarked)
Result: > 7.00

Q: Tell me its pEC50 given FC(F)(F)c1ccccc1OCCN1CCC(CNC(c2ccc(Cl)cc2)c2ccccn2)CC1 (centres unmarked) as the entry.
Result: < 4.52

Q: Specify measured pEC50 for O=C(NC(c1ccc2c(c1)OC(F)(F)O2)c1ccccn1)C1CCN(CCOc2ccc(F)cc2F)CC1 (single isomer, unassigned) [Compound 130a] .
Result: < 4.52

Q: Supply measured pEC50 of O=C(NC(c1ccc(Cl)cc1)c1ccc(F)cn1)C1CCN(CCOc2ccccc2F)CC1 (single isomer, unassigned) [Compound 92a] in your reply.
Result: 6.00 to 7.00

Q: Using known records, supply pEC50 for O=C(NC(c1ccccc1F)c1ccccc1F)C1CCN(CCOc2ccccc2Cl)CC1
Result: < 4.52

Q: Return pEC50 (reported value) for this molecule: O=C(NC(c1ccc(Cl)cc1)c1ccncc1F)C1CCN(CCOc2ccccc2F)CC1 (single isomer, unassigned) [Compound 91b]
Result: < 4.52

Q: Provide one value: measured pEC50 of COc1cccc(C(NCC2CCN(CCOc3ccccc3F)CC2)c2ccccn2)c1 (centres unmarked)
Result: > 7.00
